# target-or-system: human Adenosine A1 Receptor (AdoRA1), ADORA1 (gene 134) (UniProt P30542)
# Sequence (P30542 whole entry, looked up): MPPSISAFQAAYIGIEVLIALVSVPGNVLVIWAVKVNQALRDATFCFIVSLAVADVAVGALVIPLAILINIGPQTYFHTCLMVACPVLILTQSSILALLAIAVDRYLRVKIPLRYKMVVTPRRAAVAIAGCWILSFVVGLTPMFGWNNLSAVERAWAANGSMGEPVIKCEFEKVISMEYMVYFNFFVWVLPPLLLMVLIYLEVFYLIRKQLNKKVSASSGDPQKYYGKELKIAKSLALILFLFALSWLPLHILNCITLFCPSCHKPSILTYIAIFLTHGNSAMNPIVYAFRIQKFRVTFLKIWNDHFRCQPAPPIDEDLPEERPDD
# experiment: NVS_GPCR_hAdoRA1: NovaScreen (NVS) G Protein-Coupled Receptor Assay for human Adenosine A1 Receptor (AdoRA1) (AID 2283254)
Records with an inconclusive call do not appear. Activity calls are given as the source filed them. The calls were made as follows: active = hit-call score of the fitted dose curve at least 0.9, where 1 is the maximum; inconclusive = response in the unintended direction; inactive = score below 0.9.
Pick one: Y for active, N for inactive

For orientation, consider the following solved cases.
{"molecule": "N[C@@H](Cc1cc(I)c(Oc2ccc(O)c(I)c2)c(I)c1)C(=O)O", "category-label": "Y"}
{"molecule": "CCCCC(CC)COC(=O)c1ccccc1C(=O)O (stereo not given)", "category-label": "N"}
{"molecule": "CCNc1nc(N)nc(Cl)n1", "category-label": "Y"}
{"molecule": "O=C(c1ccc(O)cc1O)c1ccc(O)cc1O", "category-label": "Y"}

Input: For COC(=O)c1cccc(C)c1S(=O)(=O)NC(=O)Nc1nc(OCC(F)(F)F)nc(N(C)C)n1 , which call appears in the assay record?
Output: Y
